Measured pIC50 by item
molecular target: GSK3b (GST-full length GSK3b) (Homo sapiens (Human)); experiment: GSK3b TR-FRET kinase assay; format: biochemical; settings: 1 nM GSK3b, 2 μM ATP, 30 minute preincubation; read-out: GSK3-B TR-FRET BIOCHEMICAL (TR-FRET); IC50
Sequence (P49841 whole entry): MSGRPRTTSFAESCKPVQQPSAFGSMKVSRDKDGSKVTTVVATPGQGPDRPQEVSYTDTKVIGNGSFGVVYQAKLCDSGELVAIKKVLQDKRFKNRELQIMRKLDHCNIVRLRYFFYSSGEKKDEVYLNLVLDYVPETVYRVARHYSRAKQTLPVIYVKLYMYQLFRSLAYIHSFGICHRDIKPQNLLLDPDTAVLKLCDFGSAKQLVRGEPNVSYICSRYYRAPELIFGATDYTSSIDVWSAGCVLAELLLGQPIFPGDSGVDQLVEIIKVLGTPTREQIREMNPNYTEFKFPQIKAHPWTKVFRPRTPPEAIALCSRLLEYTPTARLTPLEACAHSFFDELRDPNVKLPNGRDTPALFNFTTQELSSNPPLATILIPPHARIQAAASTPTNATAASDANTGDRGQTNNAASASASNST
pIC50: −log10 of the molar value.

Past entries and their recorded results:
> print(dat)
                                   compound      measured
1  CC1(C)CC(=O)C2=C(C1)Nc1n[nH]cc1C21CCN(S(=O)(=O)c2ccn(-c3ccccc3)n2)CC1        ≥ 7.00
2  CCC1(c2cccc(C(F)(F)F)c2)C2=C(CC(C)(C)N(C)C2=O)Nc2n[nH]cc21 (centres unmarked) [Compound 826791]  5.30 to 6.00
3  CCC1(c2cccc(-c3cnn4c3CCCC4)c2)C2=C(CC(C)(C)NC2=O)Nc2n[nH]cc21 (centres unmarked)  6.00 to 7.00
4  CC[C@]1(c2cccc(N(C)c3ncccn3)c2)C2=C(CC(C)(C)NC2=O)Nc2[nH]ncc21        < 5.30
5  CC1(C)CC(=O)C2=C(C1)Nc1n[nH]cc1C21COC2(CN(C(=O)CC3CC(F)(F)C3)C2)C1 (centres unmarked)        ≥ 7.00
6  CC[C@]1(c2cccc(-c3cn(C)nc3C)c2)C2=C(CC(C)(C)NC2=O)Nc2n[nH]cc21        ≥ 7.00
7  CC[C@]1(c2cccc(C(F)(F)F)c2)C2=C(C[C@@H](C(C)(C)C)NC2=O)Nc2n[nH]cc21  6.00 to 7.00
8  CC1(C)CC(=O)C2=C(C1)Nc1n[nH]cc1C21CCN(S(=O)(=O)CC2CC2)CC1        ≥ 7.00

IN: Identify the measured pIC50 of `CC[C@@]1(c2cccc(C(F)(F)F)c2)C2=C(CCN(C)C2=O)Nc2n[nH]cc21` for GSK3b (GST-full length GSK3b) (Homo sapiens (Human)).
OUT: 6.00 to 7.00

IN: Then what about the compound CC1CCC(CC(=O)N2CC3(C2)CC2(CO3)C3=C(CC(C)(C)CC3=O)Nc3n[nH]cc32)C1 (centres unmarked) ?
OUT: ≥ 7.00

IN: Then what about the compound CCC1(c2cccc(C(F)(F)F)c2)C2=C(CCNC2=O)Nc2n[nH]cc21 (centres unmarked) [Compound 912622] ?
OUT: 5.30 to 6.00

IN: Then what about the compound CC1(C)CC(=O)C2=C(C1)Nc1n[nH]cc1C21COC2(CN(C(=O)Cc3ccccc3)C2)C1 (centres unmarked) ?
OUT: ≥ 7.00
